Each recorded value in this set is attributed to patent US20060193821.

tgt: T1, IL-23 (mouse, p19/p40 heterodimer) (Mus musculus, UniProt Q9EQ14;P43432 SEQ:22-196,SEQ:23-335)
T1 sequence 1: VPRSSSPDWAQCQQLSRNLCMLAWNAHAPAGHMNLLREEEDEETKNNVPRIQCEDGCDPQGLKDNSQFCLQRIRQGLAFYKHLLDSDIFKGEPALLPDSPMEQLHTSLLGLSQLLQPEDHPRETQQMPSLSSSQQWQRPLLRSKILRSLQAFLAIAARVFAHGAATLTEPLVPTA
T1 sequence 2: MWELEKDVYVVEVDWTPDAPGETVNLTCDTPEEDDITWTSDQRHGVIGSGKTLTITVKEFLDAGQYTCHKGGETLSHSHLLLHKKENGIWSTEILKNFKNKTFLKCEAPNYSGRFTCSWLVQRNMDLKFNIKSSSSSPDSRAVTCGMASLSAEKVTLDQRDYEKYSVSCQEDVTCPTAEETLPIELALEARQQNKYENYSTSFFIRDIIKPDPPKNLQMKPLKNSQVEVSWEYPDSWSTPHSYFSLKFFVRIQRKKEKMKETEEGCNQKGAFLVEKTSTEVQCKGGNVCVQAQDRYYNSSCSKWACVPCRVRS
method: filter; 1X PBS, 0.1 mg/mL BSA, 30 min RT
protocol.conditions: tags: isolated in-house; label: 32P
measure: pKd
Note on pKd: it is the negative log10 of concentration, concentration in mol/L.

Solved entries:
- binder: "ARC1634 (ssRNA, 2'-F all C and U (rRfY)) RNA: GGAGCGCACUCAGCCACCUUGGGCUUAAUACCUAUCGGAUGUGCGCCUAGCACGGAAUUUCGACCUCUCUGCUAGC"
  test.result: 8.52
- binder: "ARC1628 (ssRNA, 2'-F all C and U (rRfY)) RNA: GGAGCGCACUCAGCCACAGGUGGCUUAAUACUGUAAAGACGUGCGCGCAGAGGGAUUUUCGACCUCUCUGCUAGC"
  test.result: 8.70

Turning now to a further record.
Look up and report measured pKd for this entry: ARC1630 (ssRNA, 2'-F all C and U (rRfY)) RNA: GGAGCGCACUCAGCCACUCUACUCGAUAUAGUUUAUCGAGCCGGUGGUAGAUUAUGAUUUCGACCUCUCUGCUAGC 7.85
